- Protocol Summary: qHTS of pediatric cancer cell lines to identify multiple opportunities for drug repurposing: Confirmatory screen for OHS-50 cells (AID 1347128);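 further: compound exposure lasted 48 h at 37 degrees C; nearly all actives have a fitted effect of over 55% in size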
- Condition Parameters: OHS-50 osteosarcoma cells viability; series mostly up to 45.9 µM
Records with an inconclusive call do not appear. The source made the active and inactive calls. The call rests on the fitted dose curve; in most records, active means well fitted cell-killing curve with a large enough effect; inconclusive means small, poorly fitted or top-dose-only effect, or effect the other way; inactive means no such curve, though single readings can be large or run the other way.
Pick from active, inactive when you respond.

CC(=O)OCC(=O)[C@@]1(O)[C@H](C)C[C@H]2[C@@H]3C=C(C)C4=Cc5c(cnn5-c5ccccc5)C[C@]4(C)[C@@H]3[C@@H](O)C[C@@]21C    active
COc1ccc(-c2cc3c(C)nc(N)nc3n(C3CCC(OCCO)CC3)c2=O)cn1 (centres undefined)    inactive
CCNC(=O)Nc1ccc2ncc(Nc3ccc(C)cc3)nc2n1    inactive

**Query** What call does the record list for Cc1[nH]c2ccccc2c1CCNCc1ccc(C=CC(=O)NO)cc1 ?
**Result** active

---

- Protocol Summary: Quantitative High-Throughput drug screen in 47 multiple myeloma cell lines against the NCATS MIPE library collection: KMS12BM_JCRB cell viability assay (AID 1918971); further: nearly all actives have a fitted effect of over 35% in size
- Condition Parameters: KMS12BM myeloma viability, CellTiter-Glo ATP, 48 h; series mostly up to 45.8 µM
Inconclusive results are not listed. Calls of active or inactive are those of the source. Calls follow the shape of the dose curve; as a rule, active = well fitted cell-killing curve with a large enough effect; inconclusive = small, poorly fitted or top-dose-only effect, or effect the other way; inactive = no such curve, though single readings can be large or run the other way.
Pick from active, inactive when you respond.

Cc1cc(Nc2cc(CN3CCOCC3)c3nc(C)c(Cc4ccc(Cl)cc4F)n3n2)n[nH]1    active
CC[C@H]1CN2CCc3cc(OC)c(OC)cc3[C@H]2C[C@@H]1C[C@@H]1NCCc2cc(OC)c(OC)cc21    active
CCn1cc(-c2ccnc3[nH]c(-c4cccc(CN(C)C)c4)cc23)c(-c2ccc(NC(=O)N(C)C)cc2)n1    active
CC(C)c1ccc(Cn2ccc3c4c(N)nc(NC5CC5)nc4ccc32)cc1    active
N#Cc1c(O)c2c(-c3ccc(-c4ccccc4O)cc3)csc2[nH]c1=O    active
O=C(NCCS(=O)(=O)c1ccc(C(F)(F)F)cn1)c1ccc(Cl)cc1    active
CCS(=O)(=O)c1cccc(-c2cc(C(=O)NC3CCN(C)CC3)c(C)c3[nH]c4ncc(C)cc4c23)c1    active
CCCNC(=O)Nc1ccc(Oc2ncnc3cc(OC)c(OC)cc23)cc1Cl    active

**Query** What call does the record list for CCOc1cc2ncc(C#N)c(Nc3ccc(F)c(Cl)c3)c2cc1NC(=O)C=CCN(C)C ?
**Result** active

**Query** Same read-out for CN1CC[C@@H](c2c(O)cc(O)c3c(=O)cc(-c4ccccc4Cl)oc23)[C@@H](O)C1 ?
**Result** active

**Query** Same read-out for CCCCCCCCCC(=O)N[C@@H](Cc1c[nH]c2ccccc12)C(=O)N[C@H](CC(N)=O)C(=O)N[C@@H](CC(=O)O)C(=O)N[C@@H]1C(=O)NCC(=O)N[C@@H](CCCN)C(=O)N[C@@H](CC(=O)O)C(=O)N[C@H](C)C(=O)N[C@@H](CC(=O)O)C(=O)NCC(=O)N[C@H](CO)C(=O)N[C@@H]([C@@H](C)CC(=O)O)C(=O)N[C@@H](CC(=O)c2ccccc2N)C(=O)O[C@@H]1C ?
**Result** inactive

**Query** Same read-out for CN[C@H]1CCc2cc(OC)c(OC)c(OC)c2-c2ccc(OC)c(=O)cc21 ?
**Result** active

**Query** Same read-out for Nc1nc(-c2nn(Cc3ccccc3F)c3ncccc23)nc(N)c1N1CCOCC1 ?
**Result** inactive

**Query** Same read-out for Cn1c(CNc2ccc(C(=N)N)cc2)nc2cc(C(=O)N(CCC(=O)O)c3ccccn3)ccc21 ?
**Result** inactive

**Query** Same read-out for O=C(CCCCCCNC(=O)c1cnc(N(c2ccccc2)c2ccccc2)nc1)NO ?
**Result** active

**Query** Same read-out for CN1CCC(CNc2ccc3ncc(-c4cccc(OC(F)(F)F)c4)n3n2)CC1 ?
**Result** active

**Query** Same read-out for C[C@]1(CO)CN(c2cc(C(=O)Nc3ccc4c(c3)-c3c(c(C(N)=O)nn3-c3ccc(F)cc3)CC4)c(Cl)cn2)C[C@@]1(C)CO ?
**Result** active

**Query** Same read-out for Cc1ccc(C(=O)Nc2ccc(CN3CCN(C)CC3)c(C(F)(F)F)c2)cc1C#Cc1cnc2cccnn12 ?
**Result** active

**Query** Same read-out for COc1ccc2c(c1)CC[C@@H](CN(C)CC(=O)O)[C@H]2c1ccccc1 ?
**Result** active

**Query** Same read-out for NC(=O)c1c(OCc2c(F)cc(Br)cc2F)nsc1NC(=O)NCCCCN1CCCC1 ?
**Result** active

// provenance: PubChem BioAssay (NCATS)
